# System: 299254-011-R-J1-PDC complex spheroid viability;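 further: spheroids exposed to drugs for one week before measurement; percent viability relative to DMSO vehicle control taken as 100%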
# Experimental Protocol: Anticancer human tumor 299254-011-R-J1-PDC patient-derived melanoma cell line growth inhibition [POLQ]
# Experimental Conditions: second compound 0.1 µM; first compound 1 µM; active compounds read low
# Experimental: Multicellular complex tumor spheroid response to Polymerase (POL) inhibitors (novobiocin, ART-558, RP6685) in combination with a variety of drugs and investigational agents in selected tumor cell lines The POL inhibitors (novobiocin, ART-558, and RP6685) were evaluated both individually and in combination with standard of care and investigational anticancer small molecules within a complex spheroid model of solid tumors. . […]
Measure: viability, T/C (%)
Form entry: value (%) — number only.

Examples with answers:
[[record]]
compound = "COc1ccc([C@@H](O)c2cc(-c3ncnc4cc(N5CCOCC5)ccc34)c(F)cc2Cl)nn1 + COC1C(OC(N)=O)C(O)C(Oc2ccc3c(O)c(NC(=O)c4ccc(O)c(CC=C(C)C)c4)c(=O)oc3c2C)OC1(C)C"
observed_measurement = 99

[[record]]
compound = "CC1COCCN1c1cc(C2(O)CC3CCC(C2)O3)c2cnn(-c3ccn[nH]3)c2n1 (stereo not given) + Nc1ccc(C#CCN(C(=O)Cc2ncc(C(F)(F)F)cc2C(F)(F)F)c2ccc(F)cc2)nn1"
observed_measurement = 29.8

[[record]]
compound = "CC(C)n1c(=O)n(C)c2cnc3cc(F)c(-c4ccc(OCCCN5CCCCC5)nc4)cc3c21 + Nc1ccc(C#CCN(C(=O)Cc2ncc(C(F)(F)F)cc2C(F)(F)F)c2ccc(F)cc2)nn1"
observed_measurement = 105


Fill in: viability, T/C of O=C(c1cc(Cc2n[nH]c(=O)c3ccccc23)ccc1F)N1CCN(C(=O)C2CC2)CC1 + Cc1cccc(N(C)C(=O)C2C(O)CCN2c2nc(C)cc(C(F)(F)F)c2C#N)c1 is ___
97.5

What would you report for C=CCn1c(=O)c2cnc(Nc3ccc(N4CCN(C)CC4)cc3)nc2n1-c1cccc(C(C)(C)O)n1 + COC1C(OC(N)=O)C(O)C(Oc2ccc3c(O)c(NC(=O)c4ccc(O)c(CC=C(C)C)c4)c(=O)oc3c2C)OC1(C)C ?
64.5
